// values below are reported EC50
- TARGET_OR_SYSTEM: S1P3 (Homo sapiens, UniProt Q99500)
- Construct: host or cells: HEK293 (transient transfection)
- Sequence (P32121 whole entry): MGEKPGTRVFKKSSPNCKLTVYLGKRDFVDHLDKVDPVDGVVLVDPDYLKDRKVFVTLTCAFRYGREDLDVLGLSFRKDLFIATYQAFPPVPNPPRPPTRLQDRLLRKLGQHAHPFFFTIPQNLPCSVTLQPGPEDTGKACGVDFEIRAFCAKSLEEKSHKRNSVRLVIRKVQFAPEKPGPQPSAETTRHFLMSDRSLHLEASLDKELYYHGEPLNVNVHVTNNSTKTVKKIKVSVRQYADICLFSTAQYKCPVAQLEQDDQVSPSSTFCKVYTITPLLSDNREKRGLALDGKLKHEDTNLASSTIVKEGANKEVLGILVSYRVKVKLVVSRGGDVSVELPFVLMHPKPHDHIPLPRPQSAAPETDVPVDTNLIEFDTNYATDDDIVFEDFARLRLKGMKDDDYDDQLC
- Sequence (Q99500 whole entry): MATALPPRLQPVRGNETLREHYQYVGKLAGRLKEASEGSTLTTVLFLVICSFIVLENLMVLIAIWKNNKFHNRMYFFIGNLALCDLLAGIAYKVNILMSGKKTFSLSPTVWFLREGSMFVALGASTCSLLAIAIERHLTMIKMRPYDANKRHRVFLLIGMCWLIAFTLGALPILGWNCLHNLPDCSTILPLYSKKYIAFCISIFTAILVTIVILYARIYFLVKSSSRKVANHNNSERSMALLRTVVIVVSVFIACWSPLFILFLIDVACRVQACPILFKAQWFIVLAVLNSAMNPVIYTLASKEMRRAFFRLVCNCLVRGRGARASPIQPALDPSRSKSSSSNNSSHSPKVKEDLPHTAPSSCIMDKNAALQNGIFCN
- PROCEDURE_SUMMARY: S1P3 Tango β-arrestin recruitment assay in HEK293 cells (Assay 5)
- Type: cell-based
- TEST_PARAMETERS: read-out: Assay 5 EC50
- Text: For the Tango™ β-arrestin recruitment assay, the cytoplasmic C-terminus of S1P1 was tethered to the tTA transcriptional activator with a linker that contains a cleavage site for the N1a protease from tobacco etch virus (TEV protease). The C-terminus of the human β-arrestin2 protein was fused to TEV protease. […]

{"COMPOUND": "Cc1cc(-c2nnc(-c3cc(F)c(OC[C@H](N)[C@@H](C)OP(=O)(O)O)cc3Cl)s2)cc(NC(C)C)n1 [Entry 94]", "EC50": "≤ 0.25 µM"}
{"COMPOUND": "CC(C)Oc1ccc(-c2nnc(-c3cc(F)c(OC[C@H](N)CO)cc3Cl)s2)cn1 [Entry 35]", "EC50": "> 10 µM"}
{"COMPOUND": "N[C@H](CO)COc1cc(Cl)c(-c2nnc(-c3cc(Br)cc(OC(F)(F)F)c3)s2)cc1F [Entry 28]", "EC50": "> 10 µM"}
{"COMPOUND": "Cc1cc(-c2nnc(-c3cc(F)c(OC[C@H](N)[C@@H](C)O)cc3Cl)s2)cnc1NC(C)C [Entry 65]", "EC50": "> 10 µM"}

###

EC50 listing for selected molecules.
- TARGET_OR_SYSTEM: hS1P1R (hEdg1) membrane protein (Homo sapiens)
- Sequence (P21453 whole entry): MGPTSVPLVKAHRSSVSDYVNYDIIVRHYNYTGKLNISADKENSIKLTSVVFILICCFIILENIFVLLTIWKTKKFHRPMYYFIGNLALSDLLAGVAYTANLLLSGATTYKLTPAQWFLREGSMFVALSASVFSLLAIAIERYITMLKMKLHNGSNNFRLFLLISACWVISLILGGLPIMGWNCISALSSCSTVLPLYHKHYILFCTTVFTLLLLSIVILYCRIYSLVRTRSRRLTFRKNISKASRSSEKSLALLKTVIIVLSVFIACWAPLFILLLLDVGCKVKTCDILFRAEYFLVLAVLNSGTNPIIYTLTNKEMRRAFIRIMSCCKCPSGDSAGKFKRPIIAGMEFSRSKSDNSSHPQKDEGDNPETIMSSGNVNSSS
- PROCEDURE_SUMMARY: hS1P1R GTPγS binding assay (Assay 3a)

{"CPD_SMILES": "CC(C)Oc1ccc(-c2nnc(-c3cc(F)c(OC[C@@H](N)[C@@H](C)OP(=O)(O)O)cc3Cl)s2)cc1Cl", "EC50": "≤ 10 nM"}
{"CPD_SMILES": "CC(C)Oc1ccc(-c2nnc(-c3cc(F)c(OC[C@H](N)CO)cc3Cl)s2)cc1Cl", "EC50": "10 to 50 nM"}
{"CPD_SMILES": "CC(C)Oc1ccc(-c2nnc(-c3cc(F)c(OC[C@H](N)CO)cc3Cl)s2)cn1", "EC50": "250 to 2800 nM"}
{"CPD_SMILES": "N[C@H](CO)COc1cc(Cl)c(-c2nnc(-c3ccc(OC(F)(F)F)c(Cl)c3)s2)cc1F", "EC50": "50 to 250 nM"}
{"CPD_SMILES": "CC(C)Nc1ccc(-c2nnc(-c3cc(F)c(OC[C@@H](N)CO)cc3Cl)s2)cn1", "EC50": "250 to 2800 nM"}
{"CPD_SMILES": "CC(C)Nc1ccc(-c2nnc(-c3cc(F)c(OC[C@@H](N)[C@@H](C)O)cc3Cl)s2)cn1", "EC50": "50 to 250 nM"}
{"CPD_SMILES": "CC(C)Oc1ccc(-c2nnc(-c3cc(F)c(OC[C@H](N)[C@@H](C)OP(=O)(O)O)cc3Cl)s2)cc1Cl", "EC50": "≤ 10 nM"}
{"CPD_SMILES": "CC(C)Nc1ncc(-c2nnc(-c3cc(F)c(OC[C@@H](N)CO)cc3Cl)s2)cn1", "EC50": "50 to 250 nM"}
